- System: HMLE_sh_eGFP viability, CellTiter-Glo luminescence, 72 h
- protocolDetails: cytotoxicity in HMLE control line with eGFP shRNA, dose response, counter-screen for HMLE_sh_ECad selective toxicity project, cell-based, HMLE_sh_eGFP, luminescence (AID 463074);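 further: counterscreen control line to flag general toxicity for the HMLE_sh_ECad screen; potency for loss of viability as luminescence drops below DMSO wells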
Calls of active or inactive are those of the source.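 How the source made its calls: active means AC50 no more than tenfold above the top dose tested, or full inhibition at every dose with a flat fit (cut at about 19 µM in these data); inconclusive means flat curve fit with inhibition between 30% and 70%, or poor fit; inactive means AC50 more than tenfold above the top dose tested.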
Outcome codes: active, inactive

1) COc1cccc(-c2sc3ccc(OC)cc3c2-c2ccc(O)cc2)c1; active
2) CCCCC(CC)CN1C(=O)/C(=C/c2ccncc2)SC1=S (stereo not drawn); active
3) CN1CCN(C2=Cc3ccc(Cl)cc3Sc3ccc(F)cc32)CC1; active
4) CC1CCCN(CCCOc2ccc(Br)cc2Cl)C1 (stereo not drawn); active
5) Cc1ccc(Oc2c(C(N)=O)cc([N+](=O)[O-])cc2[N+](=O)[O-])cc1; active
6) O=C(Nc1ccc(Cl)c(Cl)c1)Nc1ccccc1NS(=O)(=O)c1cccs1; active
7) Cc1cc(F)ccc1S(=O)(=O)Nc1ccccc1C(=O)Nc1ccccc1-c1nc2ccccc2[nH]1; active
8) Cc1ccc(/C=C/C(=O)Nc2ccc(Oc3ccccc3)cc2)o1; active
9) O=C1C2C3C=CC(C4CC34)C2C(=O)N1/N=C/c1ccc(-c2ccc(F)cc2[N+](=O)[O-])o1 (stereo not drawn); active
10) COc1ccc(C(CCNCc2ccc(OC(C)C)cc2)c2ccccc2OC)cc1 (stereo not drawn); active
11) CN(C)c1ccc(/C=N/NC(=O)C(=O)/C=C2\NC3(CCCC3)Cc3ccccc32)cc1; active
12) CCN1CCN(C(=S)Nc2sc(C)c(-c3ccccc3)c2C(=O)OC)CC1; active
13) COc1ccc2cc(/C=N/NC(=O)c3ccc(CN(c4cccc(Cl)c4Cl)S(C)(=O)=O)cc3)c(Cl)nc2c1; active
14) c1ccc(-c2sc3ccccc3c2-c2ccc(OCCN3CCCC3)cc2)cc1; active
15) CCCCNc1c(-c2cccc(-c3cc(C(C)=O)cs3)c2)nc2ccc(C)cn12; active
16) C[C@H]1[C@H](C)CC[C@]2(C)CC[C@]3(C)C(=CC(=O)C4[C@@]5(C)CC[C@H](O)C(C)(C)C5CC[C@]43C)[C@H]12 (stereo partly drawn); active
17) O=[N+]([O-])c1ccc(Cl)c(/C=N/n2c(C3CCCCC3)n[nH]c2=S)c1; inactive
18) Cc1ccc(-c2cc(NC(=O)CCl)n(-c3ccccc3)n2)cc1; active
19) Cc1cccc2sc(NC(=O)C3c4ccccc4Oc4ccccc43)nc12; active
20) Cc1cc(O)c(C(C)C)cc1C1(c2cc(C(C)C)c(O)cc2C)OC(=O)c2ccccc21; active
21) Cc1ccc(-c2nc(C(Cl)Cl)c3ccccc3n2)cc1; active
22) COc1ccc(C(=O)CSc2nnc(CN3CCCCC3)n2-c2ccc(Cl)cc2)cc1OC; active
23) C=CCn1c(SCc2c(C)noc2C)nc2sc3c(c2c1=O)CCCCC3; active
24) O=C(CC1Nc2ccccc2NC1=O)Nc1ccccc1 (stereo not drawn); active
25) CCCCNc1c(-c2cccc(Sc3ccc(OC)cc3)c2)nc2ccccn12; active
26) C=C(Br)Cn1c(CCCC)nc2ccccc21; active
27) COc1ccc(C)cc1NS(=O)(=O)c1ccc(NC(=O)CN(c2cc([N+](=O)[O-])ccc2C)S(C)(=O)=O)cc1; active
28) CCCCCCOc1ccc(OC(=O)c2cccnc2)cc1; active
29) CN(C)CCCn1c(=S)[nH]c2sc3c(c2c1=O)CCCC3; inactive
30) Cc1ccc(N2NC(=O)/C(=C\c3cc4c(cc3[N+](=O)[O-])OCO4)C2=O)cc1C; active
31) Cc1cc(C)c2[nH]c(=O)c(CN(Cc3cccs3)C(=S)NCc3ccco3)cc2c1; inactive
32) COc1cc(OC)c(C=O)c(OC(=O)N2CCOCC2)c1; inactive
33) Cc1ccc(C2C(/C=C3/SC(=S)NC3=O)=C(c3cccs3)Oc3ccccc32)cc1 (stereo not drawn); active
34) COc1cc(CNCCc2c[nH]c3ccccc23)ccc1OCc1ccc(F)cc1; active
35) CC(=O)c1ccc(-c2ccc([C@H]3[C@@H]4C=CCC[C@@]4(C)C(=O)N3Cc3ccccc3)c(F)c2)cc1; active
36) COc1ccc(C2c3ccc4ccccc4c3Oc3ncn(Cc4ccco4)c(=N)c32)cc1OC (stereo not drawn); active
37) Cc1ccc(S(=O)(=O)c2c(C)nn(C(C)(C)C)c2OC(=O)c2ccc(Br)o2)cc1; active
38) CCCCNC(=S)N(C)/N=C/c1ccc2c(c1)OCO2; active
